Data provenance: paper PMC7374098

Tested on: HCT116 cells
Experiment: CellTiter-Glo cell viability assay, HCT116
Type: cell-based
Conditions: Homo sapiens, HCT-116, 48 h, read-out: IC50 anti-proliferative activity, colon carcinoma (HCT116)
property label: pIC50
pIC50 here: minus log base 10 of the concentration, concentration in moles per litre.

Field pIC50 (HCT116 cells), entry O=C(NCc1cccnc1)c1cc(-c2csc3c(=O)cc(N4CCOCC4)oc23)cc2c1OCCO2 : 5.89

###

property label: pIC50
Units for pIC50: none; it is -log10 of a concentration expressed in mol/L.

Case O=C(NCc1cccnc1)c1cc(-c2csc3c(=O)cc(N4CCNCC4)oc23)cc2c1OCCO2 [SRX3212P] , PI3Kα (Homo sapiens), pIC50 recorded as 5.24

Entry O=c1cc(N2CCNCC2)oc2c(-c3ccc4c(c3)OCCO4)csc12 [SF2523P] , PI3Kα (Homo sapiens) data, pIC50 value: 4.31

###

Give measured IC50 for each item. Keep answers brief.
Supply the numeric figure in µM, leaving out any unit text.

Observed IC50, BRD4BD2 (Homo sapiens), O=c1cc(N2CCNCC2)oc2c(-c3ccc4c(c3)OCCO4)csc12 [SF2523P] : 15.7

# IC50 measured on BRD4BD2 (Homo sapiens) for item O=C(NCc1cccnc1)c1cc(-c2csc3c(=O)cc(N4CCNCC4)oc23)cc2c1OCCO2 [SRX3212P] = 2.81

###

Test system: SKNBE-2 cells
Assay: CellTiter-Glo cell viability assay, SKNBE-2
Type: cell-based
Settings: Homo sapiens, SKNBE2, 48 h, read-out: IC50 anti-proliferative activity, neuroblastoma (SKNBE-2)
property label: pIC50
Note on pIC50: it is the negative log10 of concentration, concentration in mol/L.

Entry O=C(NCc1cccnc1)c1cc(-c2csc3c(=O)cc(N4CCOCC4)oc23)cc2c1OCCO2 ; pIC50 = 5.49

Looking up O=C(NCc1cccnc1)c1cc(-c2csc3c(=O)cc(N4CCNCC4)oc23)cc2c1OCCO2 [SRX3212P] , I found its pIC50 recorded as 4.82

###

Answer each item with its documented pIC50.
Molecular target: BRD4BD1 (Homo sapiens)
On this scale, pIC50 is minus log10 of a concentration expressed in M (mol/L).

The reported BRD4BD1 (Homo sapiens) pIC50 of O=c1cc(N2CCNCC2)oc2c(-c3ccc4c(c3)OCCO4)csc12 [SF2523P] is 6.41

BRD4BD1 (Homo sapiens) data for O=C(NCc1cccnc1)c1cc(-c2csc3c(=O)cc(N4CCNCC4)oc23)cc2c1OCCO2 [SRX3212P] ; its pIC50: 7.57
